- assayMethodText: Maximum tolerated dose
- conditionContext: mouse, in vivo; mice
measuredQuantity: MTD (mg/kg)
Please respond with the number in mg/kg and leave the unit unwritten.

Problem: Given COc1ccc(C=Cc2cc(OC)c(OC)c(OC)c2)cc1F [Compound 97-64H] , state its recorded MTD.
Solution: 200

###

- Tested on: K562
- assayMethodText: K562 cell cycle analysis
- Format: cell-based, human
- conditionContext: K562; of cells with DNA content = 2 n or >2 n
measuredQuantity: % of cells in G2-M (%)
Please respond with the number in % and leave the unit unwritten.

Worked cases, % of cells in G2-M given:
COc1ccc(/C=C\c2cc(OC)c(OC)c(OC)c2)cc1F
79
COc1ccc(C=Cc2ccc(C)c(C)c2)cc1F
57
CCC(=Cc1ccc(OC)c(O)c1)c1cc(OC)c(OC)c(OC)c1
74
COc1ccc(C=C(C)c2cc(OC)c(OC)c(OC)c2)cc1O
73

Problem: Please tell me: % of cells in G2-M of COc1ccc(/C=C\c2cc(O)c(OC)c(OC)c2)cc1F , system K562?
Solution: 71

###

Reported IC50 values follow for various compounds
- System: K562 human myelogeneous leukaemia cell line
- assayMethodText: Cytotoxicity/growth inhibition assay (MTT), K562
- Assay type: cell-based
- conditionContext: MTT; read-out: K562 IC50

Cc1ccc(/C=C/c2ccc(C)c(F)c2)cc1C
> 50 µM
Cc1ccc(/C=C/c2ccc(C)c([N+](=O)[O-])c2)cc1C
> 50 µM
COc1ccc(/C=C/c2ccc(C)c(C)c2)cc1
> 50 µM
CCOc1cc(/C=C/c2ccc(OC)c(Br)c2)cc(OCC)c1OCC
> 50 µM
COc1ccc(/C=C/c2ccc(C)c(C)c2)cc1Br
> 50 µM

Problem: Please tell me: IC50 of CCOc1cc(/C=C/c2ccc(OC)c(F)c2)cc(OCC)c1OCC , system K562 human myelogeneous leukaemia cell line?
Solution: > 50 µM

Problem: Try this compound next: CCOc1cc(/C=C/c2ccc(OC)cc2)cc(OCC)c1OCC
Solution: > 50 µM

###

Reported IC50 values follow for various compounds
- System: K562 human myelogeneous leukaemia cell line
- assayMethodText: Cytotoxicity/growth inhibition assay (MTT), K562
- Assay type: cell-based
- conditionContext: MTT; read-out: K562 IC50
Please respond with the number in µM and leave the unit unwritten.

Worked cases, IC50 given:
COc1ccc(/C=C/c2cc(OC)c(OC)c(OC)c2)cc1Br [Compound 96]
7.83
COc1ccc(/C=C/c2ccc(C)c(C)c2)cc1F [Compound 148]
2.5
COc1ccc(/C=C/c2cc(OC)c(OC)c(O[Si](C)(C)C(C)(C)C)c2)cc1F [Compound 241]
10

Continue with the compound presented below.
Problem: Given CCOc1cc(/C=C/c2ccc(OC)c(Cl)c2)cc(OCC)c1OCC [Compound 258] , state its recorded IC50.
Solution: 7
